Origin of values: paper PMC4118869

target.system: hemagglutinin of A/Brisbane/10/2007 (H3N2), in the influenza virus antigen standard (Influenza A virus A/Brisbane/10/2007 …, UniProt A8W8K8, strain)
assay.info: ELISA
experimental.parameters: one partner purified

binder	binding result
R2a-H9 (VHH, source: E. coli WK6 periplasm, purified (Talon IMAC, Superdex 75 SEC)) VHH: QVQLVESGGGLVQPGGSLRLSCAASTNIASFYTMGWYRQTPGQQRDVVAVIGNGGNTNYADSVKGRFTISRDGAKNTAHLQMNSLKPEDTDVYYCKASGPGGVILWGQGTQVTVSS	no binding
R1a-G6 (VHH, source: E. coli WK6 periplasm, purified (Talon IMAC, Superdex 75 SEC)) VHH: QVQLVESGGGLVQSGGSLRLSCAASGSMSRIITMGWYRQAPGMERELVAVIGNNDNTVYGDSVQGRFTVSRDNAKNTAYLQMNSLNAEDTAMYYCKISTLTPPHEYWGQGTQVTVSS	no binding
R1a-F5 (VHH, source: E. coli WK6 periplasm, purified (Talon IMAC, Superdex 75 SEC)) VHH: QLQLVESGGGLVQVGGSLRLSCAASGFPFDGYAIAWFRQAPGKEREGVSCRASDGNTYYAESLKGRLTMSTDNAKNTVYLQMNSLKPEDTAVYYCAAASWVASLWSPSEYDYWGQGTQVTVSS	no binding
R1a-F4 (VHH, source: E. coli WK6 periplasm, purified (Talon IMAC, Superdex 75 SEC)) VHH: QVQLVESGGGLVQPGGSLRLSCAASGSISRIVTMGWYRQGPGKERELVAVIGNYGNTNYADSVKGRFTVSRDNAKDTAYLQMNNLNVEDTAMYYCKCSTTTPPHEFWGQGTQVTVSS	no binding
